System: SW1573
Protocol Text: Growth inhibition of human SW1573 cells after 48 hrs by sulforhodamine B assay
Format: functional
Assay Setup: SW1573, 48 h
Reported Metric: GI50 (µM)

- CC1(C)C2=C(OC1CI)C(=O)c1cccc(O)c1C2=O (centres undefined): 1.3
- C=CC(C)(C)C1=C(O)C(=O)c2cccc(O)c2C1=O: 36
- C=CC(C)(C)C1=C(O)C(=O)c2c(O)cccc2C1=O: 3.8
- COC1=C(CC=C(C)C)C(=O)c2c(OC)cccc2C1=O: 5.8

###

Tested on: WiDr
Protocol Text: Growth inhibition of human WiDr cells after 48 hrs by sulforhodamine B assay
Type: functional
label 1 if GI50 is below 10 µM. label 0 if not; exact matches included in label 0.

• CC(C)=CCC1=C(O)C(=O)c2c(O)cccc2C1=O = label 0
• CC1(C)C2=C(OC1CI)C(=O)c1c(O)cccc1C2=O (stereo not drawn) = label 1
• O=C1C=C(O)c2cccc(O)c2C1=O = label 0
• CN(C)C1=CC(=O)c2c(O)cccc2C1=O = label 0
• C=CC(C)(C)C1=C(O)C(=O)c2c(O)cccc2C1=O = label 0
• CN(C)C1=CC(=O)c2cccc(O)c2C1=O = label 0
• O=C1C=C(O)c2c(O)cccc2C1=O = label 0
• CC(C)=CCOC1=CC(=O)c2c(O)cccc2C1=O = label 0
• C=CC(C)(C)C1=C(O)C(=O)c2cccc(O)c2C1=O = label 0
• CC(C)(O[N+](=O)[O-])C1CC2=C(O1)C(=O)c1ccccc1C2=O (stereo not drawn) = label 1
• C=C(C)C1CC2=C(O1)C(=O)c1ccccc1C2=O (stereo not drawn) [DEHYDROISO-ALPHA-LAPACHONE] = label 1
• CC1(C)CCC2=C(O1)C(=O)c1cccc(O)c1C2=O = label 0
• COC1=C(CC=C(C)C)C(=O)c2c(O)cccc2C1=O = label 0
• C=C(C)C1CC2=C(O1)C(=O)c1cccc(O)c1C2=O (stereo not drawn) = label 1
• CC1(C)C2=C(OC1CI)C(=O)c1cccc(O)c1C2=O (stereo not drawn) = label 1
• COC1=C(CC=C(C)C)C(=O)c2c(OC)cccc2C1=O = label 0
• O=C1C=CC(=O)c2c(O)cccc21 = label 0
• CC(C)=CCOC1=CC(=O)c2cccc(O)c2C1=O = label 1
• CC(C)=CCOC1=C(CC=C(C)C)C(=O)c2c(O)cccc2C1=O = label 0
• CC1(C)CCC2=C(O1)c1ccccc1C(=O)C2=O = label 1
• CC(C)(O[N+](=O)[O-])C1CC2=C(O1)C(=O)c1cccc(O)c1C2=O (stereo not drawn) = label 0
• CC1(C)CCC2=C(O1)C(=O)c1ccccc1C2=O = label 0
• CC(C)=CCOC1=C(CC=C(C)C)C(=O)c2cccc(O)c2C1=O = label 0
• CC(C)=CCC1=C(O)C(=O)c2ccccc2C1=O = label 0
• CC(C)=CCC1=C(O)C(=O)c2cccc(O)c2C1=O = label 1
• NC1=CC(=O)c2cccc(O)c2C1=O = label 1
• CC1(C)C=CC2=C(O1)C(=O)c1c(O)cccc1C2=O = label 0
• CC(C)(I)C1CC2=C(O1)C(=O)c1cccc(O)c1C2=O (stereo not drawn) = label 1

###

System: SW1573
Protocol Text: Growth inhibition of human SW1573 cells after 48 hrs by sulforhodamine B assay
Format: functional
Assay Setup: SW1573, 48 h
yes if GI50 is below 4 µM. no if not; exact matches included in no.

- CN(C)C1=CC(=O)c2c(O)cccc2C1=O: no
- CC(C)=CCOC1=CC(=O)c2cccc(O)c2C1=O: no
- COC1=C(CC=C(C)C)C(=O)c2c(O)cccc2C1=O: no
- CC1(C)CCC2=C(O1)C(=O)c1ccccc1C2=O [ALPHA-LAPACHONE]: yes
- CC(C)(O[N+](=O)[O-])C1CC2=C(O1)C(=O)c1ccccc1C2=O (centres undefined): yes
- CC(C)(I)C1CC2=C(O1)C(=O)c1cccc(O)c1C2=O (centres undefined): yes
- C=C(C)C1CC2=C(O1)C(=O)c1ccccc1C2=O (stereo not drawn) [DEHYDROISO-ALPHA-LAPACHONE]: yes
- CC(C)=CCOC1=C(CC=C(C)C)C(=O)c2cccc(O)c2C1=O: no
- CC(C)=CCOC1=CC(=O)c2c(O)cccc2C1=O: no
- CC1(C)CCC2=C(O1)c1ccccc1C(=O)C2=O [LAPACHONE]: yes
- CC(C)=CCOC1=C(CC=C(C)C)C(=O)c2c(O)cccc2C1=O: no
- CC(C)=CCC1=C(O)C(=O)c2ccccc2C1=O [LAPACHOL]: no
- NC1=CC(=O)c2cccc(O)c2C1=O: yes
- O=C1C=CC(=O)c2c(O)cccc21 [JUGLONE]: no
- O=C1C=C(O)c2c(O)cccc2C1=O: no
- CC(C)(O[N+](=O)[O-])C1CC2=C(O1)C(=O)c1cccc(O)c1C2=O (centres undefined): yes
- CN(C)C1=CC(=O)c2cccc(O)c2C1=O: no
- CC1(C)C=CC2=C(O1)C(=O)c1c(O)cccc1C2=O: no
- CC(C)=CCC1=C(O)C(=O)c2cccc(O)c2C1=O: yes
- CC(C)=CCC1=C(O)C(=O)c2c(O)cccc2C1=O: no
- O=C1C=C(O)c2cccc(O)c2C1=O: no
- C=C(C)C1CC2=C(O1)C(=O)c1cccc(O)c1C2=O (centres undefined): yes
- CC1(C)CCC2=C(O1)C(=O)c1cccc(O)c1C2=O: yes
- CC1(C)C2=C(OC1CI)C(=O)c1c(O)cccc1C2=O (centres undefined): yes

The measurements presented in this section are drawn from ChEMBL document CHEMBL1156174.
